meta.source: ChEMBL document CHEMBL5360557

study_system: UniProt:P06276
assay_comment: Competitive inhibition of human BuChE using butyrylthiocholine iodide as substrate assessed as inhibition constant preincubated with enzyme for 5 mins followed by substrate addition and measured after 1 min by Lineweaver-Burk plot based Ellman's method
measured_parameter: Ki (nM)
One number for each entry, in nM.

Reading of Ki for COc1cccc(CN(CCCc2ccccc2F)C2CCC2)c1OCc1ccccc1 with UniProt:P06276: 4.04

---

study_system: Cholinesterase (Homo sapiens)
Sequence (P06276 whole entry): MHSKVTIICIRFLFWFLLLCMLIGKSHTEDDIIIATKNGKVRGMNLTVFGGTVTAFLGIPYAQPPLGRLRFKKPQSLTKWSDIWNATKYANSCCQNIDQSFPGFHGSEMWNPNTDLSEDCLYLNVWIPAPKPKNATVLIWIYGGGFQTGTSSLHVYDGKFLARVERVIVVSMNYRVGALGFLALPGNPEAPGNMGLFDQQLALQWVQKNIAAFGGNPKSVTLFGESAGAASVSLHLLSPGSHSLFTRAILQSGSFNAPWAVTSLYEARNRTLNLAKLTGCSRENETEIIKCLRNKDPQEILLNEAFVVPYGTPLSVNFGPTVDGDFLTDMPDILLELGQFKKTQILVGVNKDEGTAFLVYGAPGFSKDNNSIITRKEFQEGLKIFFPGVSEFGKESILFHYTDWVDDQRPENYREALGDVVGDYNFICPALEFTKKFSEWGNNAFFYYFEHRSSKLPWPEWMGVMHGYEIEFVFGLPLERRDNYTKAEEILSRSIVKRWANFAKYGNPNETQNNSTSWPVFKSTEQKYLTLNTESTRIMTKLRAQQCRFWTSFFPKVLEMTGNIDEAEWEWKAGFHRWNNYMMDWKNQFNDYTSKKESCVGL
assay_comment: Inhibition of recombinant human BuChE using butyrylthiocholine iodide as substrate preincubated with enzyme for 5 mins followed by substrate addition and measured after 1 min by Ellman's method
measured_parameter: log10 IC50 (log10 of the value in nM)
Reminder: these figures are log10 of reported IC50, in nM before transformation.

Please review the entries below; each comes with its answer.
Reading of log10 IC50 for COc1cccc(/C=N/CCc2ccc(O)cc2)c1OCc1ccccc1 with Cholinesterase (Homo sapiens): 3.90

Reading of log10 IC50 for COc1ccccc1CCN(C)Cc1cccc(OC)c1OCc1ccccc1 with Cholinesterase (Homo sapiens): 2.90

Reading of log10 IC50 for COc1cccc(CN(CCCCc2ccccc2)CCCC(C)C)c1OCc1ccccc1 with Cholinesterase (Homo sapiens): 2.46

Reading of log10 IC50 for COc1cccc(CNCC(C)c2ccccc2)c1OCc1ccccc1 (stereo unspecified) with Cholinesterase (Homo sapiens): 2.20

Reading of log10 IC50 for CCN(CCc1cccc(OC)c1)Cc1cccc(OC)c1OCc1ccccc1 with Cholinesterase (Homo sapiens): 2.95

Now for a further compound.
Reading of log10 IC50 for CCCN(CCCc1ccccc1)Cc1cccc(OC)c1OCc1ccccc1 with Cholinesterase (Homo sapiens): 1.60
